# experiment notes: inhibitors of hydroxyurea-induced Chk1 phosphorylation, primary screen, imaging, HeLa, phospho-Chk1 nuclear intensity (AID 1187); further: test concentration not given here
# condition: hydroxyurea-induced phospho-Chk1 immunofluorescence imaging, higher = more signal
measure: z-score
Would you mind answering with just the numeric figure?

Challenge: For C=CCNC(=O)[C@@H]1[C@H]2C(=O)O[C@H](c3ccccc3)[C@H](c3ccccc3)N2[C@H](c2ccc(OCCO)cc2)[C@@]12C(=O)Nc1ccc(C#CCC(C(=O)OC)C(=O)OC)cc12 , what is its reported z-score?
Response given: 0.477

Challenge: Next compound: O=C(NCCN1CCOCC1)C1N=C(c2ccc(OCCCO)cc2)N(c2ccccc2)O1 (centres undefined)
Response given: -0.0873

Challenge: Next compound: CN1C(=O)C2C=CC(C(O)c3ccc([N+](=O)[O-])cc3)N(N3CCCCC3)C2C1=O (centres undefined)
Response given: -0.167

Challenge: Next compound: CCCC[C@@H]1C[C@H]1[C@@H](NC(=O)C(C)(C)C)c1ccc(C(F)(F)F)cc1
Response given: -0.236

---

# system: Albumin (Bos taurus) (UniProt P02769)
# Sequence (P02769 whole entry, looked up): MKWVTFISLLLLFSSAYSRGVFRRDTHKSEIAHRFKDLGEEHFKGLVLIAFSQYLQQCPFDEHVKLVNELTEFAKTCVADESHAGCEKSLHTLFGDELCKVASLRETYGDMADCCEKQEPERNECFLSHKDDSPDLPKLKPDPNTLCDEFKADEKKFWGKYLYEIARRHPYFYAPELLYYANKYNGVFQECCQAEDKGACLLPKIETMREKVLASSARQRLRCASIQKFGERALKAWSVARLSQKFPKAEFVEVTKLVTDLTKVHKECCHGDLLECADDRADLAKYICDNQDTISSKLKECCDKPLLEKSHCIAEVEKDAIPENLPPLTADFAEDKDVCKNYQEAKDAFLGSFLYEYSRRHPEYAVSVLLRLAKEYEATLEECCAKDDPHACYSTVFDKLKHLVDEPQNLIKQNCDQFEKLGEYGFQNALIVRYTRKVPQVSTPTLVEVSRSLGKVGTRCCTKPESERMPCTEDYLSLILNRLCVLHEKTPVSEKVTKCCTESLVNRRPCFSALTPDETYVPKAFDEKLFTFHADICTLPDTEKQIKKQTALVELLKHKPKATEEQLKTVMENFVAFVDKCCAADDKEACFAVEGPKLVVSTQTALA
# experiment notes: bovine serum albumin binders on microarray, profiling panel, artefact control for SMM control protein annotation, biochemical, small-molecule microarray, Alexa647 label, 635/667 nm fluorescence (AID 1118);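 further: score merges 667 nm emission intensity and signal-to-noise per printed compound spot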
# condition: BSA-A647 binding, fluorescence 635 nm, higher = more signal
Binary call on composite z-score: rule met from 0.7 upward, rule not met beneath that.

Challenge: composite z-score >= 0.7 for CN(C)CCCCCCNC(=O)[C@H]1C[C@H]2C(=O)N3CCC[C@H]3C(=O)N2[C@H]1c1ccc(O)cc1 ?
Response given: rule not met

Challenge: Next molecule: COCCOC(=O)N1C(=O)[C@@]2(c3cc(C#CCC(C(=O)OC)C(=O)OC)ccc31)[C@H](C(=O)N1CCN(c3ncccn3)CC1)[C@H]1C(=O)O[C@H](c3ccccc3)[C@H](c3ccccc3)N1[C@@H]2c1ccccc1OCCO
Response given: rule not met

Challenge: Next molecule: O=C1C2C=CC(C(O)c3cc(C(F)(F)F)cc(C(F)(F)F)c3)N(n3cnnc3)C2C(=O)N1Cc1ccccc1 (configuration not stated)
Response given: rule not met

Challenge: Next molecule: COC(=O)[C@@]1(Cc2ccc(F)cc2)[C@H]2c3cc(C(=O)N(C)C)n(Cc4ccc(Cl)c(C(F)(F)F)c4)c3C[C@H]2CN1C(=O)c1ccccc1
Response given: rule met

Challenge: Next molecule: CCS[C@H]1[C@@H](C(=O)O)[C@H](c2ccc(C)cc2)N(S(=O)(=O)c2ccc(C)cc2)[C@@H]1CC
Response given: rule met

Challenge: Next molecule: COc1ccc(CCNC(=O)[C@@H]2c3ccccc3C(=O)N(Cc3ccccc3Cl)[C@H]2c2ccc(CO)cc2)cc1
Response given: rule not met

---

# System: Human papillomavirus type 1a E7 protein (residues 1-88)
# experiment notes: HPV1a E7 small-molecule binders, primary screen, biochemical, small-molecule microarray, residues 1-88, 635 nm (AID 1129)
# condition: small-molecule microarray binding, fluorescence 635 nm; higher = more signal
measure: composite z-score
Would you mind answering with just the numeric figure?

Challenge: For C=C(CCCC)/C(=C/C[C@@H](OC(=O)c1ccncc1)c1ccc(OCCO)cc1)c1cc(C(=O)OC)ccc1OC , what is its reported composite z-score?
Response given: 1.12

Challenge: Next molecule: COC(=O)C(CC#Cc1ccc2c(c1)[C@]1(C(=O)N2)[C@H](C(=O)Nc2nc3ccccc3s2)[C@H]2C(=O)O[C@H](c3ccccc3)[C@H](c3ccccc3)N2[C@@H]1c1ccccc1OCCO)C(=O)OC
Response given: 1.24

Challenge: Next molecule: CC(=O)n1cc(C(O)C2C=CC3C(=O)N(c4ccccc4)C(=O)C3N2Nc2ccc([N+](=O)[O-])cc2)c2ccccc21 (centres undefined)
Response given: 0.981

Challenge: Next molecule: C=CCC(OC(C)=O)[C@@H]1[C@@H](N(Cc2cccc3ccccc23)C(=O)c2ccc(-c3ccccc3)cc2)c2cc(OCCCO)ccc2N1C(=O)c1ccc2ccccc2c1 (some centres undefined)
Response given: 0.233

Challenge: Next molecule: O=C(NCCN1CCOCC1)C1N=C(c2ccc(OCCCO)cc2)N(c2ccccc2)O1 (centres undefined)
Response given: 1.29

Challenge: Next molecule: [N-]=[N+]=NCc1ccccc1[C@@H]1OC(c2ccc(OCCCO)cc2)=N[C@]1(Cc1ccccc1)C(=O)NCC(O)CO (some centres undefined)
Response given: 1.19

Challenge: Next molecule: CN(C)C(=O)[C@@]1(CCS(=O)(=O)c2ccccc2)COC(c2ccc(OCCCO)cc2)=N1
Response given: 1.24

Challenge: Next molecule: COc1ccc([C@H]2OC[C@@H]3C[C@@H](Cc4ccccc4)C(=O)N32)cc1
Response given: 0.527

Challenge: Next molecule: COCCOC(=O)N1C(=O)[C@@]2(c3cc(C#CC4(O)CCCCCC4)ccc31)[C@H](c1ccccc1OCCO)N1[C@H](c3ccccc3)[C@H](c3ccccc3)OC(=O)[C@H]1[C@@H]2C(=O)N1CCN(c2ncccn2)CC1
Response given: 1.05

Challenge: Next molecule: Cc1ccc(S[C@]2(C(=O)O)CC(=O)N(C(C)C)[C@@H]2c2ccc(CO)cc2I)cc1
Response given: 0.476

Challenge: Next molecule: C=CCN1C(=O)[C@@]2(CC=C)N=C(c3ccc(OCCCO)cc3)O[C@H]2c2ccccc21
Response given: 1.2

Challenge: Next molecule: COc1ccc(CCNC(=O)[C@@H]2c3ccccc3C(=O)N(Cc3ccccc3Cl)[C@H]2c2ccc(CO)cc2)cc1
Response given: 1.14

Challenge: Next molecule: O=C(NCCN1CCOCC1)[C@@H]1c2ccccc2C(=O)N(C2CCCCC2)[C@H]1c1ccc(CO)cc1
Response given: 0.0657

Challenge: Next molecule: CCCc1cc2c(n1Cc1cc(F)cc(F)c1)C(C)C1CN(C(=O)c3ccccc3)C(C)(C(=O)OC)C21 (centres undefined)
Response given: 1.24

Challenge: Next molecule: Oc1ccc2cc[n+](Cc3sc4ccccc4c3Cl)cc2c1
Response given: -0.537

Challenge: Next molecule: COc1cc2c(cc1OC)CN(C(=O)[C@@H]1[C@H]3C(=O)O[C@H](c4ccccc4)[C@H](c4ccccc4)N3[C@H](c3ccc(O)cc3)[C@@]13C(=O)Nc1ccccc13)CC2
Response given: 1.21

Challenge: Next molecule: COCCOC(=O)N1C(=O)[C@@]2(c3cc(C#CCC(C(=O)OC)C(=O)OC)ccc31)[C@H](C(=O)Nc1nc3ccccc3s1)[C@H]1C(=O)O[C@H](c3ccccc3)[C@H](c3ccccc3)N1[C@@H]2c1ccccc1OCCO
Response given: 1.22

Challenge: Next molecule: O=C1O[C@H](c2ccccc2)[C@H](c2ccccc2)N2[C@H]1[C@@H](C(=O)N1CCCCCCC1)[C@]1(C(=O)Nc3ccc(C#CCCO)cc31)[C@H]2c1ccccc1OCCO
Response given: 1.36

Challenge: Next molecule: Cc1ccc(S[C@]2(C(=O)NC3CC3)CC(=O)N(Cc3ccccc3)[C@@H]2c2ccc(CO)cc2I)cc1
Response given: -0.0095

Challenge: Next molecule: CC(C)NC(=O)[C@@]1(c2ccc([N+](=O)[O-])cc2)CC(=O)N(C2CCCCC2)[C@@H]1c1ccc(CO)cc1I
Response given: 1.15

Challenge: Next molecule: COc1ccccc1CN1C(=O)c2ccccc2[C@@]2(Cc3ccccc3N(CC(C)C)C2=O)[C@@H]1c1ccc(CO)cc1
Response given: -0.827

Challenge: Next molecule: C=CCNC(=O)[C@H]1[C@@H]2C(=O)O[C@@H](c3ccccc3)[C@@H](c3ccccc3)N2[C@@H](c2ccccc2OCCO)[C@]12C(=O)Nc1ccc(C#CCCO)cc12
Response given: -0.231

Challenge: Next molecule: COCCCNC(=O)[C@@]1(C)c2ccccc2C(=O)N(C(C)C)[C@H]1c1ccc(CO)cc1
Response given: 1.14

Challenge: Next molecule: C=C(C(=O)CC[C@@H](OC(=O)c1cccnc1)c1ccccc1OCCO)C(C)C
Response given: 0.131

Challenge: Next molecule: CN(C)CCCCCCNC(=O)[C@H]1C[C@H]2C(=O)N3CCC[C@H]3C(=O)N2[C@H]1c1ccc(O)cc1
Response given: 1.24

Challenge: Next molecule: NC(=O)NCC#Cc1ccc2c(c1)[C@]1(C(=O)N2)[C@H](C(=O)Nc2nc3ccccc3s2)[C@H]2C(=O)O[C@H](c3ccccc3)[C@H](c3ccccc3)N2[C@@H]1c1ccccc1OCCO
Response given: 0.759

Challenge: Next molecule: CCCC[C@H]1OB(O)C[C@H]2C1=C(COC)Cn1c(=O)n(-c3ccccc3)c(=O)n12
Response given: 0.169

Challenge: Next molecule: COC(=O)[C@@]1(CCC(=O)OC(C)(C)C)N=C(c2ccc(OCCCO)cc2)O[C@H]1c1ccccc1N=[N+]=[N-]
Response given: 1.17

Challenge: Next molecule: C=C(/C(=C/C[C@H](OC(C)=O)c1ccc(CO)o1)c1cc(C(=O)OC)ccc1OC)C(C)C
Response given: -0.184
